- Tested on: NCI/ADR-RES complex spheroid viability
- PROTOCOL: Anticancer human tumor NCI/ADR-RES cell line growth inhibition;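 note: spheroids exposed to compounds for 7 days; 100% = DMSO vehicle treated spheroids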
- RUN CONDITIONS: second compound 10 µM; first compound 1 µM; hits give low values
ATTRIBUTE MEASURED: viability, T/C

MOLECULE	viability, T/C
COc1ccc([C@@H](O)c2cc(-c3ncnc4cc(N5CCOCC5)ccc34)c(F)cc2Cl)nn1 + NC1CCC(NC2CC2c2ccccc2)CC1	64.8%

Report viability, T/C for each item below.
1. CC1COCCN1c1cc(C2(S(C)(=N)=O)CC2)nc(-c2ccnc3[nH]ccc23)n1 (configuration not stated) + NC1CC1c1ccc(-c2cccc(O)c2)cc1
2. CC(C)c1c(-c2ccccc2)nc2c(C#N)c[nH]n2c1=O + NC1CCC(NC2CC2c2ccccc2)CC1
3. CC(C)c1c(-c2ccccc2)nc2c(C#N)c[nH]n2c1=O + NC1CC1c1ccc(-c2cccc(O)c2)cc1
4. O=C(c1cc(Cc2n[nH]c(=O)c3ccccc23)ccc1F)N1CCN(C(=O)C2CC2)CC1 + NC1CCC(NC2CC2c2ccccc2)CC1
5. Nc1ncn(C2CC(O)C(CO)O2)c(=O)n1 (configuration not stated) + NC1CC1c1ccc(-c2cccc(O)c2)cc1
6. COc1cc(Nc2ncc3c(n2)-c2ccc(Cl)cc2C(c2c(F)cccc2OC)=NC3)ccc1C(=O)O + NC1CCC(NC2CC2c2ccccc2)CC1

-- reply
1: 71.6%; 2: 97.5%; 3: 91.2%; 4: 88.8%; 5: 11.8%; 6: 8.65%

----------
- Test system: NCI/ADR-RES complex spheroid viability
- PROTOCOL: Anticancer human tumor NCI/ADR-RES cell line growth inhibition;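 note: spheroids exposed to compounds for 7 days; 100% = DMSO vehicle treated spheroids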
- RUN CONDITIONS: second compound 1 µM; first compound 0.001 µM; hits give low values
ATTRIBUTE MEASURED: viability, T/C (%)
Answers are plain numbers, in %.

COMPOUND	ATTRIBUTE MEASURED	OBSERVED RESULT
Cn1ncnc1C1c2n[nH]c(=O)c3cc(F)cc(c23)NC1c1ccc(F)cc1 (stereo not drawn) + NC1CC1c1ccc(-c2cccc(O)c2)cc1	viability, T/C	101
CC[C@@]1(O)C(=O)OCc2c1cc1n(c2=O)Cc2cc3c(CN(C)C)c(O)ccc3nc2-1 + NC1CCC(NC2CC2c2ccccc2)CC1	viability, T/C	103
CC(C)CC(NC(=O)CNC(=O)c1cc(Cl)ccc1Cl)B1OC(=O)CC(CC(=O)O)(C(=O)O)O1 (stereo not drawn) + NC1CC1c1ccc(-c2cccc(O)c2)cc1	viability, T/C	93.8
CC(C)CC(NC(=O)C(Cc1ccccc1)NC(=O)c1cnccn1)B(O)O (stereo not drawn) + NC1CCC(NC2CC2c2ccccc2)CC1	viability, T/C	98.4
CC[C@@]1(O)C(=O)OCc2c1cc1n(c2=O)Cc2cc3c(CN(C)C)c(O)ccc3nc2-1 + NC1CC1c1ccc(-c2cccc(O)c2)cc1	viability, T/C	98.9

Below is a list of compounds. For each, state its recorded viability, T/C.
1. CC(C)CC(NC(=O)CNC(=O)c1cc(Cl)ccc1Cl)B1OC(=O)CC(CC(=O)O)(C(=O)O)O1 (stereo not drawn) + NC1CCC(NC2CC2c2ccccc2)CC1
2. CC(C)CC(NC(=O)C(Cc1ccccc1)NC(=O)c1cnccn1)B(O)O (stereo not drawn) + NC1CC1c1ccc(-c2cccc(O)c2)cc1
3. Cn1ncnc1C1c2n[nH]c(=O)c3cc(F)cc(c23)NC1c1ccc(F)cc1 (stereo not drawn) + NC1CCC(NC2CC2c2ccccc2)CC1

-- reply
1: 102; 2: 99.4; 3: 109

src = PubChem BioAssay AID1918955
